Collected T ½ values appear next to each entry.
Tested Target: T1, biotinylated recombinant human FAP (human, UniProt Q12884 27-760, biotinylated (site not stated))
T1 construct: also called biotinylated human FAP; recombinant huFAP
Procedure Summary: SPR (Biacore), Fab

[
  {
    "Binder": "P1AE1693_Fab (humanized clone 212, VH1G2a/VL1G2a) (Fab, V domains shown, Fab) VH: QVQLVQSGAEVKKPGASVKVSCKASGYTLTDYNMDWVRQAPGKSLEWIGDIYPNTGGTIYNQKFKGRVTMTIDKSTSTVYMELSSLRSEDTAVYYCTRFRGIHYAMDYWGQGTTVTVSS VL: EIVLTQSPATLSLSPGERATLSCRASESVDNYGLSFINWFQQKPGQPPRLLIYGTSNRGSGIPARFSGSGSGTDFTLTISSLEPEDFAVYFCQQSNEVPYTFGGGTKVEIK",
    "T ½": "2.68 h"
  },
  {
    "Binder": "4B9_Fab (Fab, V domains shown, Fab) VH: EVQLLESGGGLVQPGGSLRLSCAASGFTFSSYAMSWVRQAPGKGLEWVSAIIGSGASTYYADSVKGRFTISRDNSKNTLYLQMNSLRAEDTAVYYCAKGWFGGFNYWGQGTLVTVSS VL: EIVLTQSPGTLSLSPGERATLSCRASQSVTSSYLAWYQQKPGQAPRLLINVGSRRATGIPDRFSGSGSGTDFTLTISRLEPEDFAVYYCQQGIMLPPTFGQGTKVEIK",
    "T ½": "0.917 h"
  },
  {
    "Binder": "P1AE1690_Fab (humanized clone 212, VH1G2a/VL1G1a) (Fab, V domains shown, Fab) VH: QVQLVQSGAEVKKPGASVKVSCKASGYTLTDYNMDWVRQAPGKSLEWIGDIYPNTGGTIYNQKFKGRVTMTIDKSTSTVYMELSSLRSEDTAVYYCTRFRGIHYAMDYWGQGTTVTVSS VL: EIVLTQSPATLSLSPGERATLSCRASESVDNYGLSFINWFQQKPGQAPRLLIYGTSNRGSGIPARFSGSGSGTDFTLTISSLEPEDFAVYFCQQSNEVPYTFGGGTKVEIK",
    "T ½": "3.05 h"
  },
  {
    "Binder": "P1AE1689_Fab (humanized clone 212, VH1G1a/VL1G1a) (Fab, V domains shown, Fab) VH: QVQLVQSGAEVKKPGASVKVSCKASGYTLTDYNMDWVRQAPGQGLEWIGDIYPNTGGTIYNQKFKGRVTMTIDTSTSTVYMELSSLRSEDTAVYYCTRFRGIHYAMDYWGQGTTVTVSS VL: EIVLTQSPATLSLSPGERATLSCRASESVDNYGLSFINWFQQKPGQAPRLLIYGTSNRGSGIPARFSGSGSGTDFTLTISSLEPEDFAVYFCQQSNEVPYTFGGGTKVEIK",
    "T ½": "4.57 h"
  },
  {
    "Binder": "P1AE1702_Fab (humanized clone 212, VH2G2a/VL2G2a) (Fab, V domains shown, Fab) VH: EVQLLESGGGLVQPGGSLRLSCAASGYTLTDYNMDWVRQAPGKGLEWVGDIYPNTGGTIYNQKFKGRFTISIDKSKNTAYLQMNSLRAEDTAVYYCTRFRGIHYAMDYWGQGTTVTVSS VL: DIQMTQSPSSLSASVGDRVTITCRASESVDNYGLSFINWFQQKPGQPPKLLIYGTSNRGSGVPSRFSGSGSGTDFTLTISSLQPEDFAMYFCQQSNEVPYTFGGGTKVEIK",
    "T ½": "1.8 h"
  }
]
